tested on: MCF7; assay: NCI tumour cell line growth inhibition, 48 h
Activity calls are given as the source filed them. Cut-off read from the data, not from the text of the source: active = GI50 up to about 1.1 µM and inactive = higher.
Labels: YES (active), NO (inactive)

[[record]]
compound = "CCOC(=O)c1nnsc1NC(=O)Nc1ccc(Cc2ccc(NC(=O)Nc3snnc3C(=O)OCC)cc2)cc1"
class_assignment = "NO"

[[record]]
compound = "COc1cc(C2c3cc4c(cc3OC3(OC)COC(=O)C23)OCO4)cc(OC)c1OC (stereo unspecified)"
class_assignment = "YES"

[[record]]
compound = "CC(=O)Nc1c(C(=N)C#N)ncn1CCO"
class_assignment = "NO"

[[record]]
compound = "O=C(CC(=O)CC(O)(C(F)(F)F)C(F)(F)F)CC(O)(C(F)(F)F)C(F)(F)F"
class_assignment = "NO"

[[record]]
compound = "C[N+](C)(CCNC(=O)c1cccc2cc3ccccc3nc12)Cc1ccc([N+](=O)[O-])cc1"
class_assignment = "NO"

[[record]]
compound = "CN(C)CCNC(=O)c1nc([N+](=O)[O-])cn1C"
class_assignment = "NO"

[[record]]
compound = "C1CCN2CC3CCCN4CCCC(C2C1)C34 (stereo unspecified)"
class_assignment = "NO"

[[record]]
compound = "Nc1ccc(-c2nc3ccccc3s2)cc1Br"
class_assignment = "YES"

[[record]]
compound = "CC(C)(C)NCc1cc(C(C)(C)C)cc(-c2ccc(Cl)cc2)c1O"
class_assignment = "NO"

[[record]]
compound = "CCOP(C)(=O)C(N)Cc1ccc(OC)c(OC)c1 (stereo unspecified)"
class_assignment = "NO"

[[record]]
compound = "Nc1cc(S(N)(=O)=O)ccc1SSc1ccc(S(N)(=O)=O)cc1N"
class_assignment = "NO"


Data origin, for the record: ChEMBL document CHEMBL1201862
